Listing: % of animals fully protected of selected molecules
Test system: Rats, left carotid artery thrombosis (FeCl3)
experimentDescription: In vivo antithrombotic effect, FeCl3 carotid artery thrombosis
Set-up: species or system rat
experimentalContext: single oral dose of 100 mg/Kg; no occlusion during 60 min after FeCl3 patch
valueKind: % of animals fully protected (%)

[[record]]
molecule = "CS[C@H]1CO[C@H]2[C@@H]1OC[C@H]2O[N+](=O)[O-] [(3), 2-methylthioisosorbide 5-mononitrate]"
testedon = "Rats, left carotid artery thrombosis (FeCl3)"
recordedvalue = 100

[[record]]
molecule = "C[S@@+]([O-])[C@H]1CO[C@H]2[C@@H]1OC[C@H]2O[N+](=O)[O-]"
testedon = "Rats, left carotid artery thrombosis (FeCl3)"
recordedvalue = 80

[[record]]
molecule = "CC(=O)S[C@H]1CO[C@H]2[C@@H]1OC[C@H]2O[N+](=O)[O-] [(12), 2-acetylthio-isosorbide-5-mononitrate]"
testedon = "Rats, left carotid artery thrombosis (FeCl3)"
recordedvalue = 71

[[record]]
molecule = "O=[N+]([O-])O[C@@H]1CO[C@H]2[C@@H]1OC[C@@H]2S [(1), 2-thioisosorbide 5-mononitrate]"
testedon = "Rats, left carotid artery thrombosis (FeCl3)"
recordedvalue = 100

